Type: in vitro ADME, human
measurementName: Enzymatic biomolecule biodegradation in human serum (ITLC)

CC(C)C[C@H](NC(=O)CNC(=O)[C@H](Cc1cccs1)NC(=O)[C@H](Cc1ccccc1)NC(=O)[C@H](CCC(N)=O)NC(=O)[C@H](CCC(N)=O)NC(=O)[C@@H]1CCCN1C(=O)[C@H](CCCCN)NC(=O)[C@@H]1CCCN1C(=O)[C@H](CCCNC(=N)N)NC(=O)CN1CCN(CC(=O)O)CCN(CC(=O)O)CCN(CC(=O)O)CC1)C(=O)N[C@@H](CCS(C)(=O)=O)C(N)=O [2b, [^177Lu]DOTA-[Thi^8,Met(O2)^11]SP(1–11), metal not drawn] ... only partial
CSCC[C@H](NC(=O)[C@H](CC(C)C)NC(=O)CNC(=O)[C@H](Cc1ccccc1)NC(=O)[C@H](Cc1ccccc1)NC(=O)[C@H](CCC(N)=O)NC(=O)[C@H](CCC(N)=O)NC(=O)[C@@H]1CCCN1C(=O)[C@H](CCCCN)NC(=O)[C@@H]1CCCN1C(=O)[C@H](CCCNC(=N)N)NC(=O)CN1CCN(CC(=O)O)CCN(CC(=O)O)CCN(CC(=O)O)CC1)C(N)=O [2a, [^177Lu]DOTA-SP(1–11), metal not drawn] ... only partial
CSCC[C@H](NC(=O)[C@H](CC(C)C)NC(=O)CNC(=O)[C@H](Cc1ccccc1)NC(=O)[C@H](Cc1ccccc1)NC(=O)[C@H](CCC(N)=O)NC(=O)[C@H](CCC(N)=O)NC(=O)[C@@H]1CCCN1C(=O)CN1CCN(CC(=O)O)CCN(CC(=O)O)CCN(CC(=O)O)CC1)C(N)=O [2c, [^177Lu]DOTA-SP(4–11), metal not drawn] ... only partial
